FYI, the data here is from ChEMBL document CHEMBL4020708.

measurement target: Cyclin-dependent kinase 8 (Homo sapiens, UniProt P49336)
experiment: Inhibition of CDK8 in human SW480 cells assessed as reduction in IFN-gamma induced STAT1 phosphorylation at Ser727 residues preincubated for 2 hrs followed by IFN-gamma addition measured after 1 hr by In-cell western assay
recorded endpoint: pEC50
Give bare numbers, as −log10 of the molar value.

Quick one: give me pEC50 for each item below, same order please.
1. O=C(/C=C/c1cncc(F)c1-c1cnn(C2CC2)c1)Nc1ccc(CN2CCOCC2)cc1
2. O=C(/C=C/c1cnccc1-c1cnn(C2CC2)c1)Nc1ccc(CN2CC3CC(C2)O3)cc1
3. Cn1cc(-c2ccncc2/C=C/C(=O)Nc2ccc(CN3CC(F)(F)C3)cc2)cn1
4. O=C(/C=C/c1cnccc1-c1cnn(C2CC2)c1)Nc1ccc(CN2CC(F)(F)C2)cc1

**Result**
1: 8.64; 2: 8.26; 3: 7.08; 4: 8.08

###

Give measured solubility for each item. Keep answers brief.
experiment: Solubility of the compound at pH 6.8
Format: physicochemical
experimental context: buffer

Quick one: give me solubility for each item below, same order please.
1. Cn1cc(-c2ccncc2/C=C/C(=O)Nc2ccc(CN3CC(F)(F)C3)cc2)cn1
2. O=C(/C=C/c1cnccc1-c1cnn(C2CC2)c1)Nc1ccc(CN2CC(F)(F)C2)cc1
3. Cn1cc(-c2ccncc2/C=C/C(=O)Nc2ccc(CN3CCC(F)(F)C3)cc2)cn1
4. O=C(/C=C/c1cnccc1-c1cnn(C2CC2)c1)Nc1ccc2c(c1)CCN(CC(F)(F)F)C2
5. O=C(/C=C/c1cnccc1-c1cnn(C2CC2)c1)Nc1ccc(CN2CC3CC(C2)O3)cc1
6. Cn1cc(-c2ccncc2/C=C/C(=O)Nc2ccc(CN3CC4CC3CO4)cc2)cn1 (configuration not stated)
7. Cn1cc(-c2ccncc2/C=C/C(=O)Nc2ccc3c(c2)CN(CC(F)(F)F)CC3)cn1

**Result**
1. 44 µg/mL
2. 30 µg/mL
3. 33 µg/mL
4. 3.9 µg/mL
5. 60 µg/mL
6. > 82 µg/mL
7. 8.9 µg/mL

###

System: Liver
experiment: Intrinsic clearance in human liver microsomes at 1 umol/L after 15 to 30 mins in presence of NADPH by LC/MS/MS analysis
Format: ADME, microsome
experimental context: 1 µM
Give measured microsomal intrinsic clearance for each item. Keep answers brief.
Numbers only, in µL/min/mg.

>  <mol>
O=C(/C=C/c1cnccc1-c1cnn(C2CC2)c1)Nc1ccc(CN2CC(F)(F)C2)cc1

>  <recorded endpoint>
microsomal intrinsic clearance

>  <observed measurement>
15

$$$$

Quick one: give me microsomal intrinsic clearance for each item below, same order please.
1. O=C(/C=C/c1cnccc1-c1cn[nH]c1)Nc1ccc(CN2CCOCC2)cc1
2. Cn1cc(-c2ccncc2/C=C/C(=O)Nc2ccc(CN3CCOCC3)cc2)cn1
3. O=C(/C=C/c1cnccc1-c1cnn(Cc2ccccc2)c1)Nc1ccc(CN2CCOCC2)cc1
4. O=C(/C=C/c1cnccc1-c1cnn(C2CC2)c1)Nc1ccc(CN2CCOCC2)cc1

**Result**
1. 5.1
2. 22
3. 78
4. 25

###

measurement target: CDK8/Cyclin C (Homo sapiens)
Sequence (P49336 whole entry): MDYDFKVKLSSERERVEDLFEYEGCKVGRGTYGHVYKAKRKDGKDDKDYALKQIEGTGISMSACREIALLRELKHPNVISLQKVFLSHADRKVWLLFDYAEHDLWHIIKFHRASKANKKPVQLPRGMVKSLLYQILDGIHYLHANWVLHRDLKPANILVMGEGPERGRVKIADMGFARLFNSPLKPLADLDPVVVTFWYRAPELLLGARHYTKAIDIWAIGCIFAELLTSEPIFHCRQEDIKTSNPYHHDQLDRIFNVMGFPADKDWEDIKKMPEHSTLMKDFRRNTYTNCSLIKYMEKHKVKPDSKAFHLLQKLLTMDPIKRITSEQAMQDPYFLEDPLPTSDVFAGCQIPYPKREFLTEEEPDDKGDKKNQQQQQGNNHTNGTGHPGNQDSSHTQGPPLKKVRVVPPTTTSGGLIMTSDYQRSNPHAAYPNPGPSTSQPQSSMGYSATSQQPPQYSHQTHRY
Sequence (P24863 whole entry, further chain): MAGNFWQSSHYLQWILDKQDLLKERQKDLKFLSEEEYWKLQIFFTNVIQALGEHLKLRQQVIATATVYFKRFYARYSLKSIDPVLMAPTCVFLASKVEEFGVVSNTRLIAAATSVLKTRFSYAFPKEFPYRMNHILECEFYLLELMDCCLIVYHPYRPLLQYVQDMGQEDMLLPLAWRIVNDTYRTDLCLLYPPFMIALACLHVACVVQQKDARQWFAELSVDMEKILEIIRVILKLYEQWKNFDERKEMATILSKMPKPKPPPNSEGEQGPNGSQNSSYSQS
experiment: Inhibition of kinase tracer 236 binding to full length N terminal GST-tagged human CDK8 (1 to 464 end residues) /CycC ( 1 to 283 end residues) expressed in baculovirus expression system after 60 min by TR-FRET assay
recorded endpoint: IC50 (nM)
Numbers only, in nM.

>  <molecule>
O=C(/C=C/c1cnccc1-c1cnsc1)Nc1ccc(CN2CCOCC2)cc1

>  <observed measurement>
27

$$$$
>  <molecule>
O=C(/C=C/c1cnccc1-c1cnn(Cc2ccccc2)c1)Nc1ccc(CN2CCOCC2)cc1

>  <observed measurement>
4.5

$$$$
>  <molecule>
COc1ccc(-c2ccncc2/C=C/C(=O)Nc2ccc(CN3CCOCC3)cc2)s1

>  <observed measurement>
28

$$$$
>  <molecule>
Cn1cc(-c2ccncc2/C=C/C(=O)Nc2ccc(CN3CC(F)(F)C3)cc2)cn1

>  <observed measurement>
11

$$$$
>  <molecule>
CC1COCCN1Cc1ccc(NC(=O)/C=C/c2cnccc2-c2cnn(C)c2)cc1 (stereo not given)

>  <observed measurement>
20

$$$$
>  <molecule>
O=C(/C=C/c1cnccc1-c1cnn(C2CC2)c1)Nc1ccc2c(c1)CCN(CC(F)(F)F)C2

>  <observed measurement>
7.1

$$$$
>  <molecule>
Cn1cnc2ccc(-c3ccncc3/C=C/C(=O)Nc3ccc(CN4CCOCC4)cc3)cc21

>  <observed measurement>
2.5

$$$$
>  <molecule>
Cn1cc(-c2ccncc2/C=C/C(=O)Nc2ccc3c(c2)CN(CC(F)(F)F)CC3)cn1

>  <observed measurement>
3.2

$$$$
>  <molecule>
Cn1cc(-c2ccncc2/C=C/C(=O)Nc2ccc(CN3CCC(F)(F)C3)cc2)cn1

>  <observed measurement>
6.2

$$$$
>  <molecule>
Cn1cc(-c2ccncc2/C=C/C(=O)Nc2ccc(CN3C4CCC3COC4)cc2)cn1

>  <observed measurement>
6.3

$$$$

Quick one: give me IC50 for each item below, same order please.
1. Cn1cc(-c2ccncc2/C=C/C(=O)Nc2ccc(CN3CC4CC3CO4)cc2)cn1 (stereo not given)
2. O=C(/C=C/c1cnccc1-c1cncs1)Nc1ccc(CN2CCOCC2)cc1
3. NC(=O)c1ccc(-c2ccncc2/C=C/C(=O)Nc2ccc(CN3CCOCC3)cc2)s1
4. CC1CN(Cc2ccc(NC(=O)/C=C/c3cnccc3-c3cnn(C)c3)cc2)CCO1 (stereo not given)
5. Cn1cc(-c2ccncc2/C=C/C(=O)Nc2ccc3c(c2)CCN(CC(F)(F)F)C3)cn1
6. Cn1cc(-c2ccncc2CCC(=O)Nc2ccc(CN3CCOCC3)cc2)cn1
7. Cn1cc(-c2cc(N)ncc2/C=C/C(=O)Nc2ccc(CN3CCOCC3)cc2)cn1

**Result**
1. 16
2. 41
3. 8.3
4. 6.7
5. 4.5
6. 41
7. 990

**Query** State its IC50: O=C(/C=C/c1cnccc1-c1cnn(CC(F)(F)F)c1)Nc1ccc(CN2CCOCC2)cc1
**Result** 28

###

Give measured Cmax for each item. Keep answers brief.
experiment: Cmax in mouse at 1 mg/kg, po administered as cassette dose measured up to 8 hrs by LC/MS/MS analysis
Format: ADME, organism-based
Set-up: dose 1 mg/kg, route oral
experimental context: in vivo
One number for each entry, in ng/mL.

>  <mol>
O=C(/C=C/c1cnccc1-c1cnn(C2CC2)c1)Nc1ccc(CN2CC(F)(F)C2)cc1

>  <unit text>
ng/mL

>  <Cmax>
321

$$$$
>  <mol>
Cn1cc(-c2ccncc2/C=C/C(=O)Nc2ccc(CN3CCOCC3)cc2)cn1

>  <unit text>
ng/mL

>  <Cmax>
47.5

$$$$
>  <mol>
O=C(/C=C/c1cnccc1-c1cnn(Cc2ccccc2)c1)Nc1ccc(CN2CCOCC2)cc1

>  <unit text>
ng/mL

>  <Cmax>
15.7

$$$$

**Query** State its Cmax: O=C(/C=C/c1cnccc1-c1cnn(C2CC2)c1)Nc1ccc(CN2CCOCC2)cc1
**Result** 208

###

experiment: Total clearance in mouse at 1 mg/kg, po administered as cassette dose measured up to 8 hrs by LC/MS/MS analysis
Assay type: ADME, organism-based
experimental context: in vivo
Give measured CL/F for each item. Keep answers brief.
Answers are plain numbers, in mL/min/kg.

Before answering, review these 2 worked examples.
>  <mol>
O=C(/C=C/c1cnccc1-c1cnn(Cc2ccccc2)c1)Nc1ccc(CN2CCOCC2)cc1

>  <observed measurement>
96.1

$$$$
>  <mol>
O=C(/C=C/c1cnccc1-c1cnn(C2CC2)c1)Nc1ccc(CN2CCOCC2)cc1

>  <observed measurement>
25.4

$$$$

**Query** State its CL/F: Cn1cc(-c2ccncc2/C=C/C(=O)Nc2ccc(CN3CCOCC3)cc2)cn1
**Result** 49.5

###

experiment: AUC (0 to 8 hrs) in mouse at 1 mg/kg, po administered as cassette dose by LC/MS/MS analysis
Format: ADME, organism-based
Design: time < 8 hr, dose 1 mg/kg, route oral
experimental context: in vivo
recorded endpoint: AUC(0-t) at 8 h (ng·h/mL)
One number for each entry, in ng·h/mL.

Before answering, review these 3 worked examples.
>  <mol>
O=C(/C=C/c1cnccc1-c1cnn(C2CC2)c1)Nc1ccc(CN2CCOCC2)cc1

>  <unit text>
ng·h/mL

>  <observed measurement>
340

$$$$
>  <mol>
O=C(/C=C/c1cnccc1-c1cnn(Cc2ccccc2)c1)Nc1ccc(CN2CCOCC2)cc1

>  <unit text>
ng·h/mL

>  <observed measurement>
26.9

$$$$
>  <mol>
Cn1cc(-c2ccncc2/C=C/C(=O)Nc2ccc(CN3CCOCC3)cc2)cn1

>  <unit text>
ng·h/mL

>  <observed measurement>
76.9

$$$$

**Query** State its AUC(0-t) at 8 h: O=C(/C=C/c1cnccc1-c1cnn(C2CC2)c1)Nc1ccc(CN2CC(F)(F)C2)cc1
**Result** 370
